Target: HLA-B*57:01
Test: IEDB peptide-MHC binding, purified MHC/direct/fluorescence; filed as Kd, often an IC50 or EC50 that approximates it; bounds were set here for any values at or beyond the usual limits of such assays
Conditions: source organism: Bacillus anthracis
pKd: −log10 of the molar value.
MEASUREMENT NAME: pKd

Input YFENSDLNL . Output pKd: ≤ 4.70

---

Biological target: HLA-A*02:12
Assay: IEDB peptide-MHC binding, purified MHC/competitive/fluorescence; filed as Kd, often an IC50 or EC50 that approximates it; bounds were set here for any values at or beyond the usual limits of such assays
Settings: source organism: Brucella abortus S19
MEASUREMENT NAME: Kd

Input KQWIVAGAI . Output Kd: ≥ 20 µM

---

Molecular target: HLA-B*58:01
Test: IEDB peptide-MHC binding, purified MHC/competitive/fluorescence; filed as Kd, often an IC50 or EC50 that approximates it; bounds were set here for any values at or beyond the usual limits of such assays
Settings: source organism: Bacillus anthracis str. A0488
pKd: −log10 of the molar value.
MEASUREMENT NAME: pKd

Input FVMPIFEQI . Output pKd: ≤ 5.30

---

Target: HLA-A*32:01
Assay: IEDB peptide-MHC binding, purified MHC/competitive/radioactivity; filed as Kd, often an IC50 or EC50 that approximates it; bounds were set here for any values at or beyond the usual limits of such assays
Conditions: source organism: Dengue virus 3 Martinique/1243/1999
MEASUREMENT NAME: Kd (nM)
Respond numerically; units are nM and should not be typed.

Input GTFKKSGAI . Output Kd: 4930

Input QLLLMRTSW . Output Kd: 10.4

Input ITQFETYQL . Output Kd: 1630

---

Give pKd for every item shown.
Biological target: HLA-B*58:01
Experiment: IEDB peptide-MHC binding, purified MHC/direct/fluorescence; filed as Kd, often an IC50 or EC50 that approximates it; bounds were set here for any values at or beyond the usual limits of such assays
Conditions: source organism: Escherichia coli O157:H7
pKd: −log10 of the molar value.

Case GITGGHIPK , HLA-B*58:01, pKd recorded as ≤ 4.70

Case EQRLIDICV , HLA-B*58:01, pKd recorded as ≤ 4.70

Case YLFQWNDNV , HLA-B*58:01, pKd recorded as ≤ 4.70

---

Molecular target: HLA-A*01:01
Assay: IEDB peptide-MHC binding, purified MHC/competitive/radioactivity; filed as Kd, often an IC50 or EC50 that approximates it; bounds were set here for any values at or beyond the usual limits of such assays
Details: source organism: Dengue virus 1 Nauru/West Pac/1974
MEASUREMENT NAME: Kd
Entry format: amount then unit.

Input EAEPPFGESY . Output Kd: 1360 nM

---

Molecular target: HLA-A*02:01
Test: IEDB peptide-MHC binding, purified MHC/competitive/radioactivity; filed as Kd, often an IC50 or EC50 that approximates it; bounds were set here for any values at or beyond the usual limits of such assays
Conditions: source organism: dengue virus type 3
MEASUREMENT NAME: Kd (nM)
Respond numerically; units are nM and should not be typed.

Input GLFGKGSLV . Output Kd: 2.9

---

Give pIC50 for every item shown.
Biological target: HLA-B*15:01
Test: IEDB peptide-MHC binding, purified MHC/competitive/fluorescence; bounds were set here for any values at or beyond the usual limits of such assays
Details: source organism: Sudan ebolavirus
Answer as the number alone; pIC50 is minus log10 of concentration in mol/L.

Input QLSNTTGRL . Output pIC50: 4.66

Input QLRGEELSF . Output pIC50: 4.78

---

Give Kd for every item shown.
Biological target: HLA-B*51:01
Experiment: IEDB peptide-MHC binding, purified MHC/competitive/radioactivity; filed as Kd, often an IC50 or EC50 that approximates it; bounds were set here for any values at or beyond the usual limits of such assays
Conditions: source organism: Mammarenavirus choriomeningitidis

Input MPSEDGAEDL . Output Kd: ≥ 69.6 µM

Input LPIFSDAAL . Output Kd: ≥ 64.1 µM

---

Biological target: HLA-A*11:01
Assay: IEDB peptide-MHC binding, purified MHC/direct/fluorescence; filed as Kd, often an IC50 or EC50 that approximates it; bounds were set here for any values at or beyond the usual limits of such assays
Details: source organism: SARS-CoV1
Give Kd for every item shown.
Respond numerically; units are nM and should not be typed.

Input TPSGTWLTY . Output Kd: 4570

Input KSYEHQTPF . Output Kd: 837

---

Molecular target: HLA-C*03:03
Experiment: IEDB peptide-MHC binding, purified MHC/direct/fluorescence; filed as Kd, often an IC50 or EC50 that approximates it; bounds were set here for any values at or beyond the usual limits of such assays
Conditions: source organism: Escherichia coli O157:H7 str. EDL933
pKd: −log10 of the molar value.
MEASUREMENT NAME: pKd

Input YLFQWNDNV . Output pKd: ≤ 4.70

---

Target: HLA-A*31:01
Assay: IEDB peptide-MHC binding, purified MHC/competitive/fluorescence; filed as Kd, often an IC50 or EC50 that approximates it; bounds were set here for any values at or beyond the usual limits of such assays
Settings: source organism: Lassa virus GA391
MEASUREMENT NAME: Kd (nM)
Respond numerically; units are nM and should not be typed.

Input MTMPLSCTK . Output Kd: 671

---

Target: HLA-A*03:01
Assay: IEDB peptide-MHC binding, purified MHC/competitive/radioactivity; filed as Kd, often an IC50 or EC50 that approximates it; bounds were set here for any values at or beyond the usual limits of such assays
Details: source organism: Vaccinia virus WR
Give pKd for every item shown.
Answer as the number alone; pKd is minus log10 of concentration in mol/L.

Input LSARNKLFK . Output pKd: 8.66

Input CFKEASFSK . Output pKd: 6.02

Input AFDISVNASK . Output pKd: 6.23

Input FSCGLSLQDY . Output pKd: 6.01

Input SSFIMRNFLR . Output pKd: 5.68

Input CTDPSERVFK . Output pKd: 6.27

Input NIADAARHY . Output pKd: 5.17

Input SAVFKDSFLR . Output pKd: 6.18

Input ALEYLSELK . Output pKd: 6.01

Input TLSPAHLINK . Output pKd: 8.69

Input RIRQQLPLY . Output pKd: 7.67

Input NFDYPFFRK . Output pKd: 5.04

Input DLIVTFRERY . Output pKd: 7.45

Input MQKFTILEY . Output pKd: 6.33

Input VTSLAIKNYY . Output pKd: 6.69

Input AVFKDSFLR . Output pKd: 7.79

Input AISKLGINY . Output pKd: 6.75

Input IIFLKLFKK . Output pKd: 8.06

---

Target: HLA-B*15:01
Test: IEDB peptide-MHC binding, purified MHC/competitive/fluorescence; filed as Kd, often an IC50 or EC50 that approximates it; bounds were set here for any values at or beyond the usual limits of such assays
Details: source organism: Mycobacterium tuberculosis C
MEASUREMENT NAME: Kd

Input SLVAIHLAC . Output Kd: ≥ 20 µM

---

Target: HLA-A*69:01
Experiment: IEDB peptide-MHC binding, purified MHC/direct/fluorescence; filed as Kd, often an IC50 or EC50 that approximates it; bounds were set here for any values at or beyond the usual limits of such assays
Conditions: source organism: Bacillus cereus
MEASUREMENT NAME: pKd
Answer as the number alone; pKd is minus log10 of concentration in mol/L.

Input YTLNDAPYI . Output pKd: 8.62

---

Target: HLA-B*48:01
Experiment: IEDB peptide-MHC binding, purified MHC/direct/fluorescence; filed as Kd, often an IC50 or EC50 that approximates it; bounds were set here for any values at or beyond the usual limits of such assays
Settings: source organism: Mammarenavirus lassaense
MEASUREMENT NAME: Kd

Input FVRSSPANF . Output Kd: ≥ 20 µM

---

Target: HLA-B*58:01
Experiment: IEDB peptide-MHC binding, purified MHC/direct/fluorescence; filed as Kd, often an IC50 or EC50 that approximates it; bounds were set here for any values at or beyond the usual limits of such assays
Conditions: source organism: Orthohantavirus andesense
MEASUREMENT NAME: pKd
Answer as the number alone; pKd is minus log10 of concentration in mol/L.

Input VSANVKGNW . Output pKd: 8.64

---

Target: HLA-A*24:02
Test: IEDB peptide-MHC binding, purified MHC/direct/fluorescence; filed as Kd, often an IC50 or EC50 that approximates it; bounds were set here for any values at or beyond the usual limits of such assays
Conditions: source organism: Influenza A virus (A/Duck/Shantou/2134/00(H9N2))
MEASUREMENT NAME: Kd

Case ASRGLWDSF , HLA-A*24:02, Kd recorded as ≥ 20 µM

Just for reference, the Immune Epitope Database (IEDB) is where these values come from.
